Where do the numbers come from? From PubChem BioAssay (NCI).

System: SK-MEL-5 melanoma
procedure-summary: NCI tumour cell line growth inhibition, 48 h
property-measured: TGI

Worked examples follow.
COC(=O)[C@@H]1C2OC(C)(C)OC2CN1C(=O)OCc1ccccc1 (some centres undefined)	> 100 µM
CO[C@H]1C[C@@H]2CC[C@@H](C)[C@@](O)(O2)C(=O)C(=O)N2CCCC[C@H]2C(=O)O[C@H]([C@H](C)C[C@@H]2CC[C@@H](OP(C)(C)=O)[C@H](OC)C2)CC(=O)[C@H](C)/C=C(\C)[C@@H](O)[C@@H](OC)C(=O)[C@H](C)C[C@H](C)/C=C/C=C/C=C/1C	18.4 µM
COc1ccc(-c2cc(-c3cn[nH]c3-c3ccccn3)ccn2)cc1	> 25 µM

The compound listed as COc1cc2c(cc1OC)C1CCc3ccccc3CN1CC2 (centres undefined) has a reported TGI of > 100 µM

The compound listed as `CN1CCN(Cc2ccc(NC(=O)c3nc4ccc5[nH]ncc5c4c4c3CCC4)cc2C(F)(F)F)CC1` has a reported TGI of 14.1 µM

###

System: HCC-2998 colon
procedure-summary: NCI tumour cell line growth inhibition, 48 h; in the data active = GI50 below about 0.43 µM; inactive = the rest
Your reply should match one of these outcome classes. active, inactive

For orientation, consider the following solved cases.
ClC1=NC(Cl)C(Cl)=N/C1=N\c1ncn[nH]1 (stereo unspecified)	inactive
CCC[CH2][Ge]([CH2]CCC)([CH2]CCC)[O]C(=O)C(O)c1ccccc1 (stereo unspecified)	inactive
CCCCCCCCCCCC[n+]1ccccc1	inactive
CN(C)C(=O)c1cc2cnc(Nc3ccc(-c4csc5c(=O)cc(N6CCNCC6)oc45)cc3)nc2n1C1CCCC1	inactive
CO/N=C(/COc1c(-c2ccccc2)oc2ccccc2c1=O)c1ccc(OC)cc1	inactive

Moving on to the next molecule.
Request: // param item: `c1ccc(-c2nnc(Nc3ccc4c(c3)OCCO4)o2)c(NCc2ccncc2)c1` ; yields the recorded call
Result: active

###

Test system: NCI-H23 lung
procedure-summary: NCI tumour cell line growth inhibition, 48 h
property-measured: TGI (µM)
Value expressed in µM; do not type the unit.

Cc1cc2c3ccccc3ccc2[n+]2ccccc12	19.3
C[C@]12CC[C@H](O)C=C1CC[C@@H]1[C@@H]2CC[C@]2(C)C(=N/O)/C(=C/c3ccncc3)C[C@@H]12	63.7
Cn1c(Sc2ccc(-c3cccnc3)n2C)ccc1-c1cccnc1	34.8
O=C1OC(C2=CC(=O)c3ccccc3C2=O)C(Cl)=C1Cl (stereo unspecified)	59.4
COc1cc(Cn2ccc3c2-c2oncc2CC3)cc(OC)c1	52.9
CCOC(=O)CCC(C(=O)OCC)n1nnc2ccc(Nc3c(C)[n+]([O-])c4cc(Cl)ccc4[n+]3[O-])cc21 (stereo unspecified)	69.4
CN(C)CCCNc1ccnc2cc([N+](=O)[O-])ccc12	25.4
O=C(CC(=O)Nc1ccccc1O)Nc1ccccc1O	64.3

The molecule listed as `Cc1c2cccc-2ccc2c1[nH]c1ccc(Br)cc12` has a reported TGI of 22.4

The molecule listed as `Cc1c(C(=O)/C=C/c2ccccc2Cl)[n+](=O)c2ccccc2n1[O-]` has a reported TGI of 28.5

The molecule listed as `Cc1cc(N(CCCCl)CCCCl)ccc1C=Nc1cccc(Cl)c1` has a reported TGI of 27.7

The molecule listed as `CCN(CC)CCCOc1cc(O)c2c(=O)cc(-c3ccccc3)oc2c1` has a reported TGI of 23.4

###

System: CCRF-CEM leukemia
procedure-summary: NCI tumour cell line growth inhibition, 48 h
property-measured: TGI (µM)
Value expressed in µM; do not type the unit.

Worked examples follow.
COc1ccc(/C=C/C(=O)c2ccc3cc(OC)c(OC)cc3c2)cc1OC	31.6
CC(C)Oc1ccc(CNC2=NCCO2)c2ccccc12	30.4
C/C=C/C(C#N)(Cc1ccccc1)OP1(=O)OC(c2ccccc2)C(C)N1C (stereo not given)	41.2
C[C@]12CC[C@H](O)C=C1CC[C@@H]1[C@@H]2CC[C@]2(C)C(=N/O)/C(=C/c3ccncc3)C[C@@H]12	32.9

The compound listed as `CN(C)CC/C(=N\Nc1ccc(Cl)c(Cl)c1)c1ccccc1` has a reported TGI of 6.18

###

molecules and their reported TGI
Test system: HL-60(TB) leukemia
procedure-summary: NCI tumour cell line growth inhibition, 48 h

COCOCC1CCCN1CN1CCC[C@H]1COCOC (stereo not given in full)	61.3 µM
O=C(/C=C\c1ccccc1)Oc1ccc(/C=C2\CCCCC2=O)cc1	35.2 µM
Cc1cc(S(=O)(=O)NC2=NC(c3ccccc3)c3ccccc3N2)c(S)cc1Cl (stereo not given)	> 100 µM
Cc1ccc2c(c1)SC(c1cc3c(cc1Br)OCO3)S2 (stereo not given)	> 31.6 µM

The molecule listed as `CN(C)/C=C(\C(=O)c1ccccc1)n1nc(-c2ccccc2)cc1-c1ccccc1` has a reported TGI of > 10 µM

The molecule listed as CCC1(C(=O)OC)CCc2c(OC)ccc(OC)c2C1=O (stereo not given) has a reported TGI of > 100 µM

The molecule listed as O=C1/C(=C/c2ccccc2)N=C(c2ccccc2)N1C1Nc2cc3c(cc2S1)NC(N1C(=O)/C(=C/c2ccccc2)N=C1c1ccccc1)S3 (stereo not given) has a reported TGI of > 100 µM

The molecule listed as `Fc1ccc(-c2nnc3sc(COc4ccccc4Cl)nn23)cc1Cl` has a reported TGI of > 100 µM

The molecule listed as `N#Cc1c(N)c2c(c(-c3ccccc3)c1-c1ccccc1)C(=O)N(NC(=O)c1ccccc1)C2=O` has a reported TGI of > 100 µM

The molecule listed as `COc1cc(/C=C/c2ccc(OC(C)=O)cc2)cc(OC)c1OC` has a reported TGI of 52.6 µM

###

molecules and their reported TGI
System: HCT-116 colon
procedure-summary: NCI tumour cell line growth inhibition, 48 h

Worked examples follow.
CCN1C(=O)c2ccccc2C1(O)c1ccc(Cl)cc1 (stereo not given)	> 100 µM
COC(=O)c1ccc2c(c1)C(=O)c1c-2n(CCCN)c(=O)c2cc([N+](=O)[O-])ccc12	0.959 µM
CN(C)CCNC(=O)Cn1ccc(=O)c2ccc([N+](=O)[O-])cc21	> 100 µM
COc1ccc(/C=C2\SC(c3ccc(OC)cc3)N(NC(=O)Cc3ccccc3)C2=O)cc1 (stereo not given)	> 100 µM

Below: the item to evaluate.
The molecule listed as `O=C(CC(=O)Nc1ccccc1O)Nc1ccccc1O` has a reported TGI of 27.5 µM

###

Test system: UACC-62 melanoma
procedure-summary: NCI tumour cell line growth inhibition, 48 h
property-measured: TGI

Worked examples follow.
CCCNC(C#N)c1ccc(OCCCCCCCCCCOc2ccc(C(C#N)NCCC)cc2)cc1 (configuration not stated)	> 100 µM
O=C(Nc1nc2ccccc2n1Cc1ccc(Cl)cc1)NC12CC3CC(CC(C3)C1)C2	38 µM
N#CCN1CCOCCOCCN(CC#N)CCOCCOCC1	> 100 µM

The compound `CC1(C)CC(OCCCC[P+](c2ccccc2)(c2ccccc2)c2ccccc2)CC(C)(C)N1O` , tested on UACC-62 melanoma, showed TGI of 1.64 µM

The compound `Cn1c(Sc2ccc(-c3cccnc3)n2C)ccc1-c1cccnc1` , tested on UACC-62 melanoma, showed TGI of 29.7 µM

###

Test system: SR leukemia
procedure-summary: NCI tumour cell line growth inhibition, 48 h; in the data active means GI50 below about 0.43 µM; inactive means the rest
Your reply should match one of these outcome classes. active, inactive

For orientation, consider the following solved cases.
Nc1ncnc2c(C3OC(CO)C(O)C3O)[nH]nc12 (stereo not given)	active
CCOC(=O)Cn1c(C)c(/C=N/NC(=O)c2cc3c(ccc4ccccc43)o2)c2ccccc21	active
Cc1ccc(-c2cc3nc(C(Cl)Cl)nc(-c4cccnc4)n3n2)cc1	inactive
CO/N=C(/COc1c(-c2ccccc2)oc2ccccc2c1=O)c1ccc(OC)cc1	inactive

Moving on to the next compound.
Request: // param item: `C#C[C@@]1(O)[C@@H](CO)O[C@@H](n2ccc3c(N)ncnc32)[C@@H]1O` ; yields the recorded call
Result: inactive

###

System: RPMI-8226 leukemia
procedure-summary: NCI tumour cell line growth inhibition, 48 h; in the data active = GI50 below about 0.43 µM; inactive = the rest
Your reply should match one of these outcome classes. active, inactive

For orientation, consider the following solved cases.
Cc1ccc2c(Nc3cccc(Cl)c3F)ncc(NC(=O)c3csc4c(N)ncnc34)c2c1	inactive
C=CC(=O)N1CCC([C@@H]2CCNc3c(C(N)=O)c(-c4ccc(Oc5ccccc5)cc4)nn32)CC1	inactive
CCN(C(=O)CCl)C(C)(C)C(SSSC(c1ccc(Cl)cc1)C(C)(C)N(CC)C(=O)CCl)c1ccc(Cl)cc1 (stereo unspecified)	inactive
O=C(Nc1ccccc1)NS(=O)(=O)c1ccc(N2N=C3c4ccccc4CC3C2c2ccccn2)cc1 (stereo unspecified)	inactive
C/C(=N\NC(=O)c1ccccc1O)c1cccc(/C(C)=N/NC(=O)c2ccccc2O)n1	inactive

Moving on to the next molecule.
Request: // param item: `C#C[C@@]1(O)[C@@H](CO)O[C@@H](n2ccc3c(N)ncnc32)[C@@H]1O` ; yields the recorded call
Result: inactive
